Subject of test: Voltage-gated potassium channel subunit beta-2 (Rattus norvegicus)
Run description: KvBeta enzyme negative modulators, primary screen, biochemical, NADPH fluorescence (AID 622);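 note: slope of raw intensity against log time taken from 70 to 1610 s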
Conditions used: recombinant KvBeta, 4-cyanobenzaldehyde reduction, at 10 µM, active compounds read high
Returns one of 1 (yes) or 0 (no); 1 (yes) when fluorescence slope is >= -0.5.

// known answers, use as guide
{"Structure smiles": "COc1ccc(-c2ccc(Nc3ccc(S(=O)(=O)N4CCCC4)cc3)nn2)cc1OC", "Class name": "0 (no)"}
{"Structure smiles": "CCOC(=O)N1CCC(c2cc(=O)n3[nH]cc(C(=O)OC)c3n2)CC1", "Class name": "0 (no)"}
{"Structure smiles": "CCCOc1ccccc1C(=O)NCCCC(=O)O", "Class name": "1 (yes)"}

Please check the record "CCOC(=O)c1c2c(c(=S)n(-c3ccccc3)c1N)CCC2" and state if its fluorescence slope is at or above -0.5.
1 (yes)

Please check the record "CNC(=O)CN(c1ccc(C(C)C)cc1)S(C)(=O)=O" and state if its fluorescence slope is at or above -0.5.
1 (yes)
